# Test system: P388 leukemia ip, CD2F1 mice, survival T/C
# assay text: NCI In Vivo Anticancer Drug Screen. Data for tumor model P388 Leukemia (intraperitoneal) in CD2F1 (CDF1) mice
# setup conditions: endpoint: median survival time; dose: 100.0 mg/kg/injection; schedule: Q04DX003 (ip); vehicle: saline with Tween-80
Toxic doses and inconclusive results are not listed. Rule for the calls: active = survival T/C of 150% or more; inactive = T/C below 125% in these data.
Permitted responses: yes (1) for active, no (0) for inactive

Tell me the recorded outcome of this test for CCOC(OCC)c1cccc([N+](=O)[O-])c1 .
no (0)

Tell me the recorded outcome of this test for COC(=O)C1=C/CCCN(CCC2OCCO2)/C=C\1C(=O)OC .
no (0)

Tell me the recorded outcome of this test for CCOC(=O)CN=CC1CCC=CO1 (stereo not given) .
no (0)

Tell me the recorded outcome of this test for O=C1CC(=O)N2CCSC2=N1 .
no (0)

Tell me the recorded outcome of this test for C=CCn1ccn(C)c1=S .
no (0)

Tell me the recorded outcome of this test for CCCCC(CC)CCC(C)O (stereo not given) .
no (0)

Tell me the recorded outcome of this test for CC(=O)CC(=O)OCc1ccccc1 .
no (0)

Tell me the recorded outcome of this test for c1ccc(C2=NCCCO2)cc1 .
no (0)

Tell me the recorded outcome of this test for N#CSC/C(=N\Nc1ccc([N+](=O)[O-])cc1[N+](=O)[O-])c1ccccc1 .
no (0)

Tell me the recorded outcome of this test for CC(=O)OCC(=O)[C@@]1(O)CC[C@H]2[C@@H]3C[C@H](C)C4=CC(=O)C=C[C@]4(C)[C@@]3(F)[C@@H](O)C[C@@]21C .
no (0)

Tell me the recorded outcome of this test for CC(=O)SCC(C)CCl (stereo not given) .
no (0)

Tell me the recorded outcome of this test for CCCCCCCCCCCCO[P+](=O)OCCCCCCCCCCCC .
no (0)

Tell me the recorded outcome of this test for CC(C)(C)C(=O)CC(O)(C(F)(F)Cl)C(F)(F)Cl .
no (0)

Tell me the recorded outcome of this test for OCCOc1ccc2ccccc2c1-c1c(OCCO)ccc2ccccc12 .
no (0)

Tell me the recorded outcome of this test for CC(=O)c1cc(C)[nH]c1C .
no (0)

Tell me the recorded outcome of this test for Ic1ncnc2c1ncn2C1CCCCO1 (stereo not given) .
no (0)

Tell me the recorded outcome of this test for O=[N+]([O-])c1ccsc1SSc1sccc1[N+](=O)[O-] .
no (0)

Tell me the recorded outcome of this test for CC1CN=C(c2ccc(NC(=O)Nc3ccc(C(=O)Nc4ccc(C5=NCC(C)N5)cc4)cc3)cc2)N1 (stereo not given) .
yes (1)

Tell me the recorded outcome of this test for CCC(C)(C)N=C(NC(=O)C(F)(F)F)Nc1cccnc1 .
no (0)

Tell me the recorded outcome of this test for N#Cc1cnn(C(N)=O)c1N .
no (0)

Tell me the recorded outcome of this test for CCOC(=O)OCC(=O)[C@@]1(O)CC[C@H]2[C@@H]3CCC4=CC(=O)CC[C@]4(C)[C@H]3[C@@H](O)C[C@@]21C .
no (0)

Tell me the recorded outcome of this test for Oc1cc(O)c2c(c1)Oc1cc(O)cc(O)c1C2 .
no (0)

Tell me the recorded outcome of this test for Cc1ccc(NS(=O)(=O)c2ccc3ccccc3c2)c(C)c1 .
no (0)

Tell me the recorded outcome of this test for CC(=O)Nc1cccc([N+](=O)[O-])c1 .
no (0)

Tell me the recorded outcome of this test for CN(C)C(=O)Nc1cccc(OC(=O)Nc2ccccc2)c1 .
no (0)
